Value source: ChEMBL document CHEMBL1201862

Test system: K562
assay.name: NCI tumour cell line growth inhibition, 48 h
Calls of active or inactive are those of the source. Cut-off read from the data, not from the text of the source: active = GI50 up to about 1.1 µM and inactive = higher.
Pick one and only one: true (1) for active, false (0) for inactive

Prompt: Per the records of this test, what outcome belongs to `C=C1C(=O)O[C@H]2[C@H]3O[C@@H](C[C@@H]12)[C@@]1(C)CC[C@H](O1)[C@H](C)CCC[C@H]3C` ?
Response: false (0)

Prompt: Per the records of this test, what outcome belongs to `O=C(Nc1ccccc1)n1cc(-c2ccccn2)c(N2CCOCC2)n1` ?
Response: false (0)

Prompt: Per the records of this test, what outcome belongs to `Cc1cc(=O)oc2cc(OC(=O)Nc3ccc(Cl)c(Cl)c3)ccc12` ?
Response: false (0)

Prompt: Per the records of this test, what outcome belongs to `O=C(/N=C(\Nc1ccccc1)SCCS/C(=N/C(=O)c1cccs1)Nc1ccccc1)c1cccs1` ?
Response: false (0)

Prompt: Per the records of this test, what outcome belongs to `COc1cc(CCc2cccnc2)cc(OC)c1OC` ?
Response: false (0)

Prompt: Per the records of this test, what outcome belongs to COc1cc(/C=c2\sc3n(c2=O)C(c2ccc(Cl)cc2)C2=C(CCCC2C)N=3)cc(OC)c1OC (stereo not given) ?
Response: false (0)

Prompt: Per the records of this test, what outcome belongs to `CCC(=O)NC(Nc1ccc(O)cc1)(C(F)(F)F)C(F)(F)F` ?
Response: false (0)

Prompt: Per the records of this test, what outcome belongs to COC(=O)C(Nc1ccc(OC)cc1)c1ccccc1 (stereo not given) ?
Response: false (0)

Prompt: Per the records of this test, what outcome belongs to CCOC12OC3=C(CC1CC1=C(CCC1=O)O2)C(=O)CC3 (stereo not given) ?
Response: false (0)

Prompt: Per the records of this test, what outcome belongs to CC(=O)OC1CC2OC(Cc3ccccc32)O1 (stereo not given) ?
Response: false (0)

Prompt: Per the records of this test, what outcome belongs to `O=[N+]([O-])C(=C(Sc1ccccc1)Sc1ccccc1)C(Cl)=C(Cl)Cl` ?
Response: true (1)

Prompt: Per the records of this test, what outcome belongs to `O=[N+]([O-])/C(C(Cl)=C(Cl)Cl)=C(/Sc1ccccc1)N1CCCCC1` ?
Response: false (0)

Prompt: Per the records of this test, what outcome belongs to `CCOC(=O)/C(C#N)=C1/C(O)=C(C(=O)OC)C(C(=O)OC)=C1C(=O)OC.c1ccncc1` ?
Response: false (0)

Prompt: Per the records of this test, what outcome belongs to O=C1Nc2ccccc2N=CC1NC(=O)C(c1ccccc1)c1ccccc1 (stereo not given) ?
Response: false (0)

Prompt: Per the records of this test, what outcome belongs to COC(=O)C(Cc1nc2ccc(Cl)cc2nc1O)/C(=N/O)C(=O)Nc1cccc(Cl)c1C (stereo not given) ?
Response: false (0)

Prompt: Per the records of this test, what outcome belongs to `Cc1ccc(CNNC(=O)c2cc[n+]([BH2-]C#N)cc2)cc1` ?
Response: false (0)

Prompt: Per the records of this test, what outcome belongs to `CC(C)[C@H](COC(C)(C)C)/N=C/N1CSc2ccccc21` ?
Response: false (0)

Prompt: Per the records of this test, what outcome belongs to `CCn1c(=O)c2c3ccc(O)cc3[nH]c2c2ccc(O)cc21` ?
Response: false (0)

Prompt: Per the records of this test, what outcome belongs to `O=C(CSc1nnc(Cc2ccccc2)o1)Nc1cccc([N+](=O)[O-])c1` ?
Response: false (0)

Prompt: Per the records of this test, what outcome belongs to `CCCC[C@@H](C)/C=C1\CN2CCC[C@H]2[C@@](C)(OCc2ccccc2)[C@@H]1O` ?
Response: false (0)
